test: Anticancer human tumor 997537-175-T-J1-PDC patient-derived colon adenocarcinoma cell line growth inhibition [POLQ]; conditions: 997537-175-T-J1-PDC complex spheroid viability, combination with POLQ inhibitors; curve of first compound; second compound 1 µM;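 note: luminescence signal used as a surrogate for viable cells; spheroids exposed to drugs for seven days before readout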
pIC50: −log10 of the molar value.
For each of the compounds below, state its pIC50.

Would you please look over these solved cases?
>  <compound>
CC1COCCN1c1cc(C2(S(C)(=N)=O)CC2)nc(-c2ccnc3[nH]ccc23)n1 (stereo not given) + Nc1ccc(C#CCN(C(=O)Cc2ncc(C(F)(F)F)cc2C(F)(F)F)c2ccc(F)cc2)nn1

>  <pIC50>
< 5.00

$$$$
>  <compound>
COc1cc(C2c3cc4c(cc3C(OC3OC5COC(C)OC5C(O)C3O)C3COC(=O)C23)OCO4)cc(OC)c1O (stereo not given) + Nc1ccc(C#CCN(C(=O)Cc2ncc(C(F)(F)F)cc2C(F)(F)F)c2ccc(F)cc2)nn1

>  <pIC50>
< 5.00

$$$$
>  <compound>
CCc1cc2c(N3CCc4c(cc(Cn5ccnc5)cc4-c4cn(C)nc4C(F)(F)F)C3=O)ccnc2c(OC)n1 + Nc1ccc(C#CCN(C(=O)Cc2ncc(C(F)(F)F)cc2C(F)(F)F)c2ccc(F)cc2)nn1

>  <pIC50>
< 5.00

$$$$
>  <compound>
CCc1c2c(nc3ccc(O)cc13)-c1cc3c(c(=O)n1C2)COC(=O)[C@]3(O)CC + COC1C(OC(N)=O)C(O)C(Oc2ccc3c(O)c(NC(=O)c4ccc(O)c(CC=C(C)C)c4)c(=O)oc3c2C)OC1(C)C

>  <pIC50>
7.82

$$$$

Please give the documented pIC50 of O=C(Nc1ccc(O)c(NS(=O)(=O)c2ccc(F)cc2)c1)c1ccc(-c2ccccc2)cc1 + Cc1cccc(N(C)C(=O)C2C(O)CCN2c2nc(C)cc(C(F)(F)F)c2C#N)c1
< 5.00
